Where these numbers come from: paper PMC8667730

target: TLR5 protein from pGEX-6p-1 (GST-His*10-TEV-TLR5, digested with TEV protease), used for SPR (silvery pomfret (Pampus argenteus)); experiment: SPR; BIAcore S200; TLR5 immobilised on an SA sensor chip; flaB proteins injected at 30 uL/min in PBS-P, 25°C; 1:1 Langmuir fit

BINDER	Kd (µM)
flaB mutant F1 (Q57, Gln to Ala) (natural protein) MAINVSTNVSAMTAQRYLNNAADGTQKSMERLSSGYKINSARDDAAGLQISNRLTSASRGLDMAVRNANDGISIAQTAEGAMNETTNILQRMRDLSLQSANGSNSSSERQAIQEEVSALNDELNRIAETTSFGGNKLLNGSFGNKSFQIGADSGEAVMLSMSDMRSDTKAMGGKSYVATNGKAPDWSVTNATDLTLSYTDKQGEAREVTINAKAGDDLEEVATYINGQNGDIKASVGDEGKLQLFAANQKVSSDVTIGGGLGTEIGFAAGKDVTVKDINVTTVGGSQEAVALIDGALKAVDSQRASLGAFQNRFGHAISNLDNINENVNASRSRIKDTDYARETTQMTKSQILQQASTSVLAQAKQSPSAALSLLG	0.431
flaB mutant F13 (H316, His to Ala) (natural protein) MAINVSTNVSAMTAQRYLNNAADGTQKSMERLSSGYKINSARDDAAGLQISNRLTSQSRGLDMAVRNANDGISIAQTAEGAMNETTNILQRMRDLSLQSANGSNSSSERQAIQEEVSALNDELNRIAETTSFGGNKLLNGSFGNKSFQIGADSGEAVMLSMSDMRSDTKAMGGKSYVATNGKAPDWSVTNATDLTLSYTDKQGEAREVTINAKAGDDLEEVATYINGQNGDIKASVGDEGKLQLFAANQKVSSDVTIGGGLGTEIGFAAGKDVTVKDINVTTVGGSQEAVALIDGALKAVDSQRASLGAFQNRFGAAISNLDNINENVNASRSRIKDTDYARETTQMTKSQILQQASTSVLAQAKQSPSAALSLLG	7.29
flaB mutant F3 (N87, Asn to Ala) (natural protein) MAINVSTNVSAMTAQRYLNNAADGTQKSMERLSSGYKINSARDDAAGLQISNRLTSQSRGLDMAVRNANDGISIAQTAEGAMNETTAILQRMRDLSLQSANGSNSSSERQAIQEEVSALNDELNRIAETTSFGGNKLLNGSFGNKSFQIGADSGEAVMLSMSDMRSDTKAMGGKSYVATNGKAPDWSVTNATDLTLSYTDKQGEAREVTINAKAGDDLEEVATYINGQNGDIKASVGDEGKLQLFAANQKVSSDVTIGGGLGTEIGFAAGKDVTVKDINVTTVGGSQEAVALIDGALKAVDSQRASLGAFQNRFGHAISNLDNINENVNASRSRIKDTDYARETTQMTKSQILQQASTSVLAQAKQSPSAALSLLG	26.2
flaB mutant F11 (N320, Asn to Ala) (natural protein) MAINVSTNVSAMTAQRYLNNAADGTQKSMERLSSGYKINSARDDAAGLQISNRLTSQSRGLDMAVRNANDGISIAQTAEGAMNETTNILQRMRDLSLQSANGSNSSSERQAIQEEVSALNDELNRIAETTSFGGNKLLNGSFGNKSFQIGADSGEAVMLSMSDMRSDTKAMGGKSYVATNGKAPDWSVTNATDLTLSYTDKQGEAREVTINAKAGDDLEEVATYINGQNGDIKASVGDEGKLQLFAANQKVSSDVTIGGGLGTEIGFAAGKDVTVKDINVTTVGGSQEAVALIDGALKAVDSQRASLGAFQNRFGHAISALDNINENVNASRSRIKDTDYARETTQMTKSQILQQASTSVLAQAKQSPSAALSLLG	13
flaB mutant F12 (L97, Leu to Asn) (natural protein) MAINVSTNVSAMTAQRYLNNAADGTQKSMERLSSGYKINSARDDAAGLQISNRLTSQSRGLDMAVRNANDGISIAQTAEGAMNETTNILQRMRDLSNQSANGSNSSSERQAIQEEVSALNDELNRIAETTSFGGNKLLNGSFGNKSFQIGADSGEAVMLSMSDMRSDTKAMGGKSYVATNGKAPDWSVTNATDLTLSYTDKQGEAREVTINAKAGDDLEEVATYINGQNGDIKASVGDEGKLQLFAANQKVSSDVTIGGGLGTEIGFAAGKDVTVKDINVTTVGGSQEAVALIDGALKAVDSQRASLGAFQNRFGHAISNLDNINENVNASRSRIKDTDYARETTQMTKSQILQQASTSVLAQAKQSPSAALSLLG	2.41
flaB mutant F2 (N83, Asn to Ala) (natural protein) MAINVSTNVSAMTAQRYLNNAADGTQKSMERLSSGYKINSARDDAAGLQISNRLTSQSRGLDMAVRNANDGISIAQTAEGAMAETTNILQRMRDLSLQSANGSNSSSERQAIQEEVSALNDELNRIAETTSFGGNKLLNGSFGNKSFQIGADSGEAVMLSMSDMRSDTKAMGGKSYVATNGKAPDWSVTNATDLTLSYTDKQGEAREVTINAKAGDDLEEVATYINGQNGDIKASVGDEGKLQLFAANQKVSSDVTIGGGLGTEIGFAAGKDVTVKDINVTTVGGSQEAVALIDGALKAVDSQRASLGAFQNRFGHAISNLDNINENVNASRSRIKDTDYARETTQMTKSQILQQASTSVLAQAKQSPSAALSLLG	0.447
flaB mutant F5 (D94, Asp to Ala) (natural protein) MAINVSTNVSAMTAQRYLNNAADGTQKSMERLSSGYKINSARDDAAGLQISNRLTSQSRGLDMAVRNANDGISIAQTAEGAMNETTNILQRMRALSLQSANGSNSSSERQAIQEEVSALNDELNRIAETTSFGGNKLLNGSFGNKSFQIGADSGEAVMLSMSDMRSDTKAMGGKSYVATNGKAPDWSVTNATDLTLSYTDKQGEAREVTINAKAGDDLEEVATYINGQNGDIKASVGDEGKLQLFAANQKVSSDVTIGGGLGTEIGFAAGKDVTVKDINVTTVGGSQEAVALIDGALKAVDSQRASLGAFQNRFGHAISNLDNINENVNASRSRIKDTDYARETTQMTKSQILQQASTSVLAQAKQSPSAALSLLG	46.3
